Source of measurements: paper PMC6429507

- system: butyrylcholinesterase (BChE, equine serum) (Equus caballus)
- Construct: Butyrylcholinesterase (from equine serum) was purchased from Fluka; purchased Fluka; host or cells: equine serum
- test-name: Ellman's assay, butyrylcholinesterase inhibition
- Format: biochemical
- measurement-parameters: c = 10 µM; mean ± SE
Binned Grade of inhibition in% BChE; ranges: band 1 (below 50%), band 2 (50% to below 70%), band 3 (70% or more)

Before answering, review these 4 worked examples.
compound	system	label-value
CC(=O)O[C@H]1CC[C@]2(C)[C@H]3CC[C@@H]4[C@H]5[C@H](C(C)=O)CC[C@]5(C(=O)NCCN)CC[C@@]4(C)[C@]3(C)CC[C@H]2C1(C)C [Compound 15]	butyrylcholinesterase (BChE, equine serum) (Equus caballus)	band 1
CC(=O)O[C@H]1CC[C@]2(C)[C@H]3CC[C@@H]4[C@H]5[C@H](C(C)=O)CC[C@]5(C(=O)NCCN5CCCCC5)CC[C@@]4(C)[C@]3(C)CC[C@H]2C1(C)C [Compound 45]	butyrylcholinesterase (BChE, equine serum) (Equus caballus)	band 3
CC(=O)[C@@H]1CC[C@]2(C(=O)NCCN3CCCCC3)CC[C@]3(C)[C@H](CC[C@@H]4[C@@]5(C)CC[C@H](O)C(C)(C)[C@@H]5CC[C@]43C)[C@@H]12 [Compound 50]	butyrylcholinesterase (BChE, equine serum) (Equus caballus)	band 3
CC(=O)OC1CC2(C)C(CCC3(C)C2CC=C2C4CC(C)(C)CCC4(C(=O)NCCN)CCC23C)C(C)(C)C1OC(C)=O (stereo not shown) [Compound 13]	butyrylcholinesterase (BChE, equine serum) (Equus caballus)	band 1

-- ask Assign a category based on measured Grade of inhibition in% BChE for CC1(C)CCC2(C(=O)NCCN3CCCC3)CCC3(C)C(=CCC4C5(C)CCC(O)C(C)(C)C5CCC43C)C2C1 (stereo not shown) [Compound 37] and give only the class name.
-- reply band 3

-- ask Hey, which category is C=C(C)C1CC[C@]2(C(=O)NCCN3CCCCC3)CC[C@]3(C)C(CCC4[C@@]5(C)CC[C@H](O)C(C)(C)C5CC[C@]43C)C12 (stereo partly shown) [Compound 49] in, do you know?
-- reply band 2

-- ask Which category does the recorded Grade of inhibition in% BChE put CC(=O)[C@@H]1CC[C@]2(C(=O)NCCN)CC[C@]3(C)[C@H](CC[C@@H]4[C@@]5(C)CC[C@H](O)C(C)(C)[C@@H]5CC[C@]43C)[C@@H]12 [Compound 20] in?
-- reply band 1

---

- system: butyrylcholinesterase (BChE, equine serum) (Equus caballus)
- Construct: Butyrylcholinesterase (from equine serum) was purchased from Fluka; purchased Fluka; host or cells: equine serum
- test-name: Ellman's assay, butyrylcholinesterase inhibition
- Format: biochemical
- measurement-parameters: BChE, equine serum; Ellman's assay; read-out: Ki (competitive inhibition)
The following molecules are listed with their measured Ki values.

Recorded results for 5 molecules are shown here.
molecule	val
CC1(C)CC[C@]2(C(=O)NCCN)CC[C@]3(C)C(=CC[C@@H]4[C@@]5(C)CC[C@H](O)C(C)(C)[C@@H]5CC[C@]43C)[C@@H]2C1 [Compound 17]	1.93 µM
CC(=O)O[C@H]1CC[C@@]2(C)C(CC[C@]3(C)C2CC=C2C4[C@@H](C)[C@H](C)CC[C@]4(C(=O)NCCN4CCCC4)CC[C@]23C)C1(C)C (some centres unmarked) [Compound 31]	4.42 µM
CN(C)CCNC(=O)[C@]12CCC(C)(C)C[C@H]1C1=CC[C@@H]3[C@@]4(C)C[C@@H](O)[C@H](O)C(C)(C)[C@@H]4CC[C@@]3(C)[C@]1(C)CC2 [Compound 28]	2.2 µM
C[C@@H]1CC[C@]2(C(=O)NCCN3CCCC3)CC[C@]3(C)C(=CCC4[C@@]5(C)CC[C@H](O)C(C)(C)C5CC[C@]43C)C2[C@H]1C (some centres unmarked) [Compound 36]	0.47 µM
CC1(C)CCC2(C(=O)NCCN3CCCCC3)CCC3(C)C(=CCC4C5(C)CC(O)C(O)C(C)(C)C5CCC43C)C2C1 (centres unmarked) [Compound 48]	2.26 µM

-- ask // returns reported Ki for input C=C(C)C1CC[C@]2(C(=O)NCCN3CCCCC3)CC[C@]3(C)C(CCC4[C@@]5(C)CC[C@H](O)C(C)(C)C5CC[C@]43C)C12 (some centres unmarked) [Compound 49]
-- reply 2.52 µM

-- ask Any idea what Ki was measured for C[C@@H]1CC[C@]2(C(=O)NCCN)CC[C@]3(C)C(=CCC4[C@@]5(C)CC[C@H](O)C(C)(C)C5CC[C@]43C)C2[C@H]1C (some centres unmarked) [Compound 16] ?
-- reply 5.55 µM

-- ask Request the reported Ki associated with CC(=O)O[C@H]1CC[C@]2(C)[C@H]3CC[C@@H]4[C@H]5[C@H](C(C)=O)CC[C@]5(C(=O)NCCN5CCCCC5)CC[C@@]4(C)[C@]3(C)CC[C@H]2C1(C)C [Compound 45]
-- reply 0.71 µM

-- ask Report Ki for CC1(C)CC[C@]2(C(=O)NCCN3CCCCC3)CC[C@]3(C)C(=CC[C@@H]4[C@@]5(C)CC[C@H](O)C(C)(C)[C@@H]5CC[C@]43C)[C@@H]2C1 [Compound 47] please.
-- reply 1.57 µM

-- ask What measured Ki goes with C=C(C)C1CC[C@]2(C(=O)NCCN3CCCC3)CC[C@]3(C)C(CCC4[C@@]5(C)CC[C@H](O)C(C)(C)C5CC[C@]43C)C12 (some centres unmarked) [Compound 39] ?
-- reply 3.24 µM

-- ask Can you look up the measured Ki of CC(=O)O[C@H]1CC[C@]2(C)[C@H]3CC=C4[C@@H]5CC(C)(C)CC[C@]5(C(=O)NCCN5CCCC5)CC[C@@]4(C)[C@]3(C)CC[C@H]2C1(C)C [Compound 32] for me?
-- reply 2.02 µM

---

- system: butyrylcholinesterase (BChE, equine serum) (Equus caballus, UniProt P81908)
- Construct: Butyrylcholinesterase (from equine serum) was purchased from Fluka; purchased Fluka; host or cells: equine serum
- Sequence (P81908 whole entry): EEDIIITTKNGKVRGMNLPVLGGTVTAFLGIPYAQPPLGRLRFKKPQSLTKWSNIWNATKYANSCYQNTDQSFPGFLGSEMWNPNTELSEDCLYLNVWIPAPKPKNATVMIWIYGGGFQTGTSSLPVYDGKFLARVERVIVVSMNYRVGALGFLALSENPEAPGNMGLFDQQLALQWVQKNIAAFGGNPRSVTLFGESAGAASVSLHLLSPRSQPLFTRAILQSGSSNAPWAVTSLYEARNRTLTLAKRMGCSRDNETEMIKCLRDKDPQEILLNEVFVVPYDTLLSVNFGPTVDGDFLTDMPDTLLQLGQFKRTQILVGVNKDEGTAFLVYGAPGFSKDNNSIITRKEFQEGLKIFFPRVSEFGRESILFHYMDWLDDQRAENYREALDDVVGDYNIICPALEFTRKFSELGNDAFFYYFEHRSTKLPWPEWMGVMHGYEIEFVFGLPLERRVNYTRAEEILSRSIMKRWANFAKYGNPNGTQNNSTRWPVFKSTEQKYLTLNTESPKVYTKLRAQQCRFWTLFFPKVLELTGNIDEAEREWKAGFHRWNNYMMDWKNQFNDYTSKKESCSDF
- test-name: Ellman's assay, butyrylcholinesterase inhibition
- Format: biochemical
- measurement-parameters: BChE, equine serum; Ellman's assay
- From the text: In this study, carboxamides with different triterpenoic backbones (ursolic, oleanolic, maslinic, betulinic, and platanic acids), and various amine residues (Scheme 1), were investigated. A TECAN SpectraFluorPlus working in the kinetic mode and measuring the absorbance at λ = 415 nm was used for the enzymatic studies. […] determined as the quotient of the slopes (compound divided by blank) of the linear ranges. […]
result-type: Ki′ (uncompetitive inhibition)

These solved cases illustrate the format of a correct answer.
compound	result-type	val
C=C(C)C1CC[C@]2(C(=O)NCCN3CCCC3)CC[C@]3(C)C(CCC4[C@@]5(C)CC[C@H](OC(C)=O)C(C)(C)C5CC[C@]43C)C12 (stereo partly drawn)	Ki′ (uncompetitive inhibition)	> 5 µM
C=C(C)C1CC[C@]2(C(=O)NCCN3CCCCC3)CC[C@]3(C)C(CCC4[C@@]5(C)CC[C@H](O)C(C)(C)C5CC[C@]43C)C12 (stereo partly drawn)	Ki′ (uncompetitive inhibition)	> 8 µM

-- ask If you can, please state the reported Ki′ (uncompetitive inhibition) value of C=C(C)C1CC[C@]2(C(=O)NCCN3CCCC3)CC[C@]3(C)C(CCC4[C@@]5(C)CC[C@H](O)C(C)(C)C5CC[C@]43C)C12 (stereo partly drawn) .
-- reply > 9 µM

---

The entries below are paired with their reported Grade of inhibition in% BChE.
- system: butyrylcholinesterase (BChE, equine serum) (Equus caballus, UniProt P81908)
- Construct: Butyrylcholinesterase (from equine serum) was purchased from Fluka; purchased Fluka; host or cells: equine serum
- test-name: Ellman's assay, butyrylcholinesterase inhibition
- Format: biochemical
- measurement-parameters: c = 10 µM; mean ± SE
Quick note: give the figure in %, leave out the unit.

compound	result-type	val
CC(=O)O[C@H]1CC[C@@]2(C)C(CC[C@]3(C)C2CC=C2C4[C@@H](C)[C@H](C)CC[C@]4(C(=O)NCCN4CCCC4)CC[C@]23C)C1(C)C (stereo partly drawn) [Compound 31]	Grade of inhibition in% BChE	50.49

-- ask Which measured Grade of inhibition in% BChE belongs to CC1(C)CC[C@]2(C(=O)NCCN)CC[C@]3(C)C(=CC[C@@H]4[C@@]5(C)CC[C@H](O)C(C)(C)[C@@H]5CC[C@]43C)[C@@H]2C1 [Compound 17] , tested on butyrylcholinesterase (BChE, equine serum) (Equus caballus, UniProt P81908)?
-- reply 49.10

-- ask # get_value(readout= Grade of inhibition in% BChE, system= butyrylcholinesterase (BChE, equine serum) (Equus caballus, UniProt P81908)) for C=C(C)C1CC[C@]2(C(=O)NCCN3CCCC3)CC[C@]3(C)C(CCC4[C@@]5(C)CC[C@H](OC(C)=O)C(C)(C)C5CC[C@]43C)C12 (stereo partly drawn) [Compound 34]
-- reply 71.56

-- ask Under butyrylcholinesterase (BChE, equine serum) (Equus caballus, UniProt P81908): Grade of inhibition in% BChE value of CC(=O)O[C@H]1CC[C@@]2(C)C(CC[C@]3(C)C2CC=C2C4[C@@H](C)[C@H](C)CC[C@]4(C(=O)NCCN(C)C)CC[C@]23C)C1(C)C (stereo partly drawn) [Compound 21] ?
-- reply 36.50

-- ask Notebook entry, butyrylcholinesterase (BChE, equine serum) (Equus caballus, UniProt P81908) assay: Grade of inhibition in% BChE of CC1(C)CCC2(C(=O)NCCN3CCCCC3)CCC3(C)C(=CCC4C5(C)CC(O)C(O)C(C)(C)C5CCC43C)C2C1 (stereo not drawn) [Compound 48] = ?
-- reply 69.30

-- ask Recorded Grade of inhibition in% BChE for CC(=O)O[C@H]1CC[C@]2(C)[C@H]3CC[C@@H]4[C@H]5[C@H](C(C)=O)CC[C@]5(C(=O)NCCN(C)C)CC[C@@]4(C)[C@]3(C)CC[C@H]2C1(C)C [Compound 25] with butyrylcholinesterase (BChE, equine serum) (Equus caballus, UniProt P81908), please?
-- reply 88.49

-- ask Tell me reported Grade of inhibition in% BChE for C=C(C)C1CC[C@]2(C(=O)NCCN(C)C)CC[C@]3(C)C(CCC4[C@@]5(C)CC[C@H](OC(C)=O)C(C)(C)C5CC[C@]43C)C12 (stereo partly drawn) [Compound 24] , tested with butyrylcholinesterase (BChE, equine serum) (Equus caballus, UniProt P81908).
-- reply 67.75

-- ask API: value(readout= Grade of inhibition in% BChE, system= butyrylcholinesterase (BChE, equine serum) (Equus caballus, UniProt P81908), query= C[C@@H]1CC[C@]2(C(=O)NCCN)CC[C@]3(C)C(=CCC4[C@@]5(C)CC[C@H](O)C(C)(C)C5CC[C@]43C)C2[C@H]1C (stereo partly drawn) [Compound 16] )
-- reply 64.10

-- ask Query the reported Grade of inhibition in% BChE for butyrylcholinesterase (BChE, equine serum) (Equus caballus, UniProt P81908); item: C=C(C)C1CC[C@]2(C(=O)NCCN)CC[C@]3(C)C(CCC4[C@@]5(C)CC[C@H](OC(C)=O)C(C)(C)C5CC[C@]43C)C12 (stereo partly drawn) [Compound 14]
-- reply 42.70

-- ask Report Grade of inhibition in% BChE for CC(=O)O[C@H]1CC[C@]2(C)[C@H]3CC=C4[C@@H]5CC(C)(C)CC[C@]5(C(=O)NCCN5CCCC5)CC[C@@]4(C)[C@]3(C)CC[C@H]2C1(C)C [Compound 32] tested on butyrylcholinesterase (BChE, equine serum) (Equus caballus, UniProt P81908).
-- reply 65.73

-- ask Return Grade of inhibition in% BChE measured with butyrylcholinesterase (BChE, equine serum) (Equus caballus, UniProt P81908) given this compound: C=C(C)C1CC[C@]2(C(=O)NCCN)CC[C@]3(C)C(CCC4[C@@]5(C)CC[C@H](O)C(C)(C)C5CC[C@]43C)C12 (stereo partly drawn) [Compound 19]
-- reply 36.70

-- ask Request body: readout Grade of inhibition in% BChE, system butyrylcholinesterase (BChE, equine serum) (Equus caballus, UniProt P81908), query CN(C)CCNC(=O)C12CCC(C)(C)CC1C1=CCC3C4(C)CCC(O)C(C)(C)C4CCC3(C)C1(C)CC2 (stereo not drawn) [Compound 27] . Return the value.
-- reply 67.10
